- Tested on: Plasmodium falciparum
- Experiment description: Calibr Malaria Delayed Death Assay SOP
- Type: functional, organism-based
- Set-up: scale not given: in the data most compounds retested in dose-response had high values
- Test settings: concentration 4.99e-06 (unit not given; other assays of the set use mol/L)
Among all 38,000 compounds or so, about 1,200 (3.2%) showed an effect of 50% or more. The median lay at about -58%. The full list was thinned out, with strong results kept by preference.
Reported endpoint: Percent Effect (%)
Report as a plain number; the unit % is understood.

c1ccc(OCCCNCc2cccs2)nc1: 17.97

Query string: Give the measured Percent Effect for Cc1ccc(CNCc2c[nH]nc2C(C)(C)C)c(OC2CCOC2)c1 (configuration not stated)
Result string: 54.5

Query string: Give the measured Percent Effect for Cc1cccc2[nH]c(-c3cn(C4CCNCC4)nn3)nc12
Result string: 72.76

Query string: Give the measured Percent Effect for Cc1ccc(CN2CCCC3(CCN(Cc4ccoc4)CC3)C2)cc1.O=C(O)C(F)(F)F.O=C(O)C(F)(F)F
Result string: 79.2

Query string: Give the measured Percent Effect for Cc1ccsc1CNCCCOc1ccccn1
Result string: 53.78

Query string: Give the measured Percent Effect for Cc1cc2nc(-c3cn(C4CCNCC4)nn3)[nH]c2cc1C
Result string: 87.17

Query string: Give the measured Percent Effect for c1ccc(OCCNCc2cccs2)nc1
Result string: -81.56

Query string: Give the measured Percent Effect for CN(Cc1cn(C2CCNCC2)nn1)CC1CCCO1 (configuration not stated)
Result string: -84.49

Query string: Give the measured Percent Effect for CN(C)CCN1CCC(CNCc2c[nH]nc2C(C)(C)C)CC1
Result string: -18.94

Query string: Give the measured Percent Effect for CCN(CC)C(=O)COc1nc(C(C)C)no1
Result string: -177.8

Query string: Give the measured Percent Effect for Cc1c(C)c(C)c2[nH]c(-c3cn(C4CCNCC4)nn3)nc2c1C
Result string: 30.06

Query string: Give the measured Percent Effect for O=C(c1cccs1)N1CC[C@H](O)[C@@H]1Cc1ccccc1
Result string: -5.522

====

- System: Plasmodium falciparum
- Experiment description: Calibr Malaria Delayed Death Assay SOP
- Format: functional, organism-based
- Parameters: scale not given: in the data most compounds retested in dose-response had high values
- Test settings: concentration 4.99e-06 (unit not given; other assays of the set use mol/L)
Among all 38,000 compounds or so, about 1,200 (3.2%) showed an effect of 50% or more. The median lay at about -58%. The sample holds strong results, similar compounds and a random draw of the others, so the mix is not that of the screen.
Reported endpoint: Percent Effect (%)
Report as a plain number; the unit % is understood.

Cc1nc(CN2CCC3(CC2)C(=O)N(C)CCN3C)cs1.O=C(O)C(F)(F)F.O=C(O)C(F)(F)F.O=C(O)C(F)(F)F: -106.3
Cc1cc(N2CCCC3(CN(C)C(=O)O3)C2)c2cc3c(cc2n1)OCO3 (stereo not drawn): -65
CN1CCOC(CNC(=O)C2(c3cccc(C(F)(F)F)c3)CCCC2)C1 (stereo not drawn): 55.27
COc1cc(-c2cc(=O)[nH]cn2)cc(OC)c1OC: -8.244
CN(C(=O)Nc1cccnc1)C1CCN(c2ccc(Cl)cc2)CC1: 4.443

Query string: Give the measured Percent Effect for CN1CCOC(CNCc2cccc(OCC(F)(F)F)c2)C1 (stereo not drawn)
Result string: 11.83

Query string: Give the measured Percent Effect for c1nc(N2CCc3[nH]cnc3C2)c2cc[nH]c2n1
Result string: -49.27

Query string: Give the measured Percent Effect for CCc1noc(CN2CCCC(Cn3nc(C)nc3C)C2)n1 (stereo not drawn)
Result string: -109.5

Query string: Give the measured Percent Effect for CCc1noc(CN(Cc2cccs2)C2CC2)n1
Result string: -139.3

Query string: Give the measured Percent Effect for c1ccc(CNc2ncc(CN3CCCN4CCC[C@H]4C3)cn2)cc1
Result string: -75.33

====

- System: Plasmodium falciparum
- Experiment description: Calibr Malaria Delayed Death Assay SOP
- Assay type: functional, organism-based
- Design: scale not given: in the data most compounds retested in dose-response had high values
- Test settings: concentration 4.99e-06 (unit not given; other assays of the set use mol/L)
Hit rate of the full screen: of about 38,000 compounds, about 1,200 (3.2%) showed an effect of 50% or more. The median lay at about -58%. The entries come from a sample that favours strong results as a whole.
Reported endpoint: Percent Effect (%)
Report as a plain number; the unit % is understood.

CC(=O)N1CCCn2nc(CNS(=O)(=O)N(C)C(C)C)cc2C1: -134.1

Query string: Provide Percent Effect, recorded with Plasmodium falciparum, of CCN(CC)c1nc(C)cc(C(=O)Nc2ccc(Br)cc2)n1
Result string: -6.909

Query string: Provide Percent Effect, recorded with Plasmodium falciparum, of O=C(Nc1cn[nH]c1)N1CCCCCC1c1ccncc1 (stereo not given)
Result string: -103.8

====

Each entry below carries its recorded Percent Effect.
- Tested on: Plasmodium falciparum
- Experiment description: Calibr Malaria Delayed Death Assay SOP
- Assay type: functional, organism-based
- Set-up: scale not given: in the data most compounds retested in dose-response had high values
- Test settings: concentration 4.99e-06 (unit not given; other assays of the set use mol/L)
In all, about 38,000 compounds went through this assay and about 1,200 (3.2%) showed an effect of 50% or more. The median lay at about -58%. This excerpt belongs to a sample that is enriched for strong results.
Report as a plain number; the unit % is understood.

Illustrative cases are given below, each with its answer.
COc1ccc(CNC(C)Cn2cccn2)c(OC)c1OC.Cl (centres undefined): -41.68
Clc1cccc(N2CCC(NCc3cc[nH]n3)C2)c1 (centres undefined): -43.41

Query string: Give the measured Percent Effect for CC(C)c1ncc2c(n1)CN(CCCc1nc3ccccc3o1)CC2
Result string: 69.07

Query string: Give the measured Percent Effect for c1ccc2oc(CCCN3CCc4cncnc4C3)nc2c1
Result string: -82.49

Query string: Give the measured Percent Effect for Cc1cc(C)nc(N2CCCC(C(=O)Nc3n[nH]c(C(C)C)n3)C2)n1 (centres undefined)
Result string: -27.75

====

- System: Plasmodium falciparum
- Experiment description: Calibr Malaria Delayed Death Assay SOP
- Assay type: functional, organism-based
- Design: scale not given: in the data most compounds retested in dose-response had high values
- Test settings: concentration 4.99e-06 (unit not given; other assays of the set use mol/L)
Out of some 38,000 compounds screened, about 1,200 (3.2%) showed an effect of 50% or more. The median lay at about -58%. The sample holds strong results, similar compounds and a random draw of the others, so the mix is not that of the screen.
Reported endpoint: Percent Effect (%)
Report as a plain number; the unit % is understood.

Illustrative cases are given below, each with its answer.
CC(C)c1noc(CCNC(=O)N2CCN(c3cccs3)CC2)n1: -17.65
c1cc(-c2n[nH]cc2-c2ccnc(N3CCCCCC3)n2)ccn1: 76.99
O=C(NCc1ccco1)c1cc(N2CC[C@@H](O)C2)ccn1: -225.7
CCCn1nnc(NCc2cc(Br)cc(Br)c2OC)n1: -108.1
CCCOC1CCCN(c2ccnc(C(=O)NCc3ccco3)c2)C1 (configuration not stated): 63.16

Query string: Give the measured Percent Effect for COCCNC(=O)c1cccnc1Oc1ccc(Cl)cc1
Result string: -11.3

Query string: Give the measured Percent Effect for CCC(CNC(=O)CNC(C)=O)Oc1cccc(F)c1 (configuration not stated)
Result string: 84.82

====

- Test system: Plasmodium falciparum
- Experiment description: Calibr Malaria Delayed Death Assay SOP
- Assay type: functional, organism-based
- Design: scale not given: in the data most compounds retested in dose-response had high values
- Test settings: concentration 4.99e-06 (unit not given; other assays of the set use mol/L)
About 1,200 (3.2%) of roughly 38,000 compounds showed an effect of 50% or more. The median lay at about -58%. What follows is part of a selection rich in strong results, with near analogues and random picks from the rest.
Reported endpoint: Percent Effect
Answer format: value, then unit.

Illustrative cases are given below, each with its answer.
Cc1ccc(C(C)NCc2cn(CCC(N)=O)c3ccccc23)cc1C (centres undefined): 82.29%
Cc1nc(C(=O)N(C)CC2CC2)nn1-c1ccccc1C(C)C: -82.1%
COCCN1CCCC12CCN(Cc1cncn1C)CC2.O=C(O)C(F)(F)F.O=C(O)C(F)(F)F: -15.64%
COc1cc(CN2CCCC2c2cccc(F)c2)cc(OC)c1OC (centres undefined): 25.35%
Cc1ccc(NC2CCN(C(=O)COC3CCCC3)CC2)nn1: -115.6%

Query string: Give the measured Percent Effect for CCc1nc(C2CCCN2C(=O)CCCn2cccn2)no1 (centres undefined)
Result string: -167.4875%

Query string: Give the measured Percent Effect for CC(C)N1Cc2c(C(=O)N3CCN(C)CC3)nn(C)c2C1
Result string: -111.4%

Query string: Give the measured Percent Effect for Cc1cnc(CN2CCN(c3ccnc(-c4ccccc4)n3)CC2)cn1
Result string: -117.9%

Query string: Give the measured Percent Effect for CC1(c2ccccc2)CCCN(Cc2cncn2C2CCCC2)C1 (centres undefined)
Result string: 90.6%

Query string: Give the measured Percent Effect for Cc1nn(C)c(Oc2ccccc2)c1CNC1CCOc2ccccc21 (centres undefined)
Result string: -79.66%
